biological target: T1, rat serum albumin (rat, UniProt P02770 25-608); assay: SPR, single cycle kinetics, pH 5.5
T1 construct: also called RSA
pKd: −log10 of the molar value.
Assign y whenever pKd does not fall below 8; assign n whenever it does.

[
  {
    "Binder": "R11 sdAb (VHH, also called R11 VHH) VHH: QVKLEESGGGLVQAGGSLRLSCVGPGFLLRSNTMGWYRQAPGKERELVAFIRPSGLTNYNDAVQGRFTISRDNAKNTVYLQMNALKPEDTAVYYCHTRPPFQRDSWGQGTQVTVSS",
    "Cat": "n"
  },
  {
    "Binder": "R28-H3 (VHH) VHH: QVQLVESGGGLVQPGGSLRLSCAASGRTFIAYAMGWFRQAPGKEREFVAAITNFAGGTTYYADSVKGRFTISRDNSKNTLYLQMNSLRAEDTAVYYCAADRSAQTMRQVRPVLPYWGQGTLVTVSS",
    "Cat": "y"
  },
  {
    "Binder": "R28-H2 (VHH) VHH: EVQLVESGGGLVQPGGSLRLSCAASGRTFIAYAMGWFRQAPGKEREFVSAITNFAGGTTYYADSVKGRFTISRDNSKNTLYLQMNSLRAEDTAVYYCAADRSAQTMRQVRPVLPYWGQGTLVTVSS",
    "Cat": "y"
  }
]
